Test system: Aspergillus niger
Test: Antimicrobial activity against Aspergillus niger assessed as inhibition of mycelial growth by poisoned food method; further: test concentration or dose not given here
Format: functional
Can you tell me inhibition (INH) for the items I'm about to list?
Units required after the number.

What value of measured inhibition (INH) is listed for "Cc1ccc(-c2nn(-c3ccccc3)cc2-c2nnc(-c3ccccc3)o2)cc1" ?
66.6%

// next record "COc1ccc(-c2nn(-c3ccc([N+](=O)[O-])cc3)cc2-c2nnc(-c3ccccc3)o2)cc1"
55.5%

Then what about the compound "c1ccc(-c2nnc(-c3cn(-c4ccccc4)nc3-c3ccccc3)o2)cc1" ?
44.4%

Follow-up entry: "O=[N+]([O-])c1ccc(-c2nn(-c3ccc([N+](=O)[O-])cc3)cc2-c2nnc(-c3ccccc3)o2)cc1"
55.5%

Subsequent entry: "COc1ccc(-c2nn(-c3ccccc3)cc2-c2nnc(-c3ccccc3)o2)cc1"
44.4%

Another compound: OC(Cn1cncn1)(Cn1cncn1)c1ccc(F)cc1F [FLUCONAZOLE]
81.1%

Can you handle "O=[N+]([O-])c1ccc(-c2nn(-c3ccccc3)cc2-c2nnc(-c3ccccc3)o2)cc1" next?
50%

Next compound up: "O=[N+]([O-])c1ccc(-n2cc(-c3nnc(-c4ccccc4)o3)c(-c3ccccc3)n2)cc1"
66.6%

Then this compound: "Brc1ccc(-c2nn(-c3ccccc3)cc2-c2nnc(-c3ccccc3)o2)cc1"
61.1%

Cool, now "Clc1ccc(-c2nn(-c3ccccc3)cc2-c2nnc(-c3ccccc3)o2)cc1"
55.5%

Would you mind doing "Fc1ccc(-c2nn(-c3ccccc3)cc2-c2nnc(-c3ccccc3)o2)cc1" as well?
66.6%

Follow-up item: "O=[N+]([O-])c1ccc(-n2cc(-c3nnc(-c4ccccc4)o3)c(-c3ccc(F)cc3)n2)cc1"
44.4%
